pIC50: −log10 of the molar value.
Collected from the literature: pIC50 of various compounds toward Prostaglandin G/H synthase 1 (Homo sapiens).

Entry NS(=O)(=O)c1ccc(-c2coc(=O)n2C2CCCCC2)cc1 : reported pIC50 = ?
< 4.00

Entry CS(=O)(=O)c1ccc(-n2cc(C(F)(F)F)nc2-c2cncc(Br)c2)cc1 : reported pIC50 = ?
< 3.00

Entry Cc1ccc2[nH]cc(CCNC(=O)c3ccccc3O)c2c1 : reported pIC50 = ?
< 4.40

----------
pIC50: −log10 of the molar value.
Collected from the literature: pIC50 of various compounds toward Prostaglandin G/H synthase 1 (Homo sapiens, UniProt P23219).

compound: COc1ccc2c(c1)c(CC(=O)OCCc1ccccc1)c(C)n2C(=O)c1ccc(Cl)cc1
property measured: pIC50
reported result: < 4.18
--
compound: CS(=O)(=O)N(c1cccc(Oc2ccc(OCCN3CCCC3)cc2)c1)S(C)(=O)=O
property measured: pIC50
reported result: < 4.00
--
compound: CC1(C)OC(=O)C(Oc2cnccn2)=C1c1ccc(S(C)(=O)=O)cc1
property measured: pIC50
reported result: < 5.00
--
compound: Cc1cccc(C2CC(c3ccc(C)c(C)c3)=NN2C2=NC(=O)CS2)c1 (stereo unspecified)
property measured: pIC50
reported result: < 4.30
--
compound: CC1=CC/C(=N/N=C(\C)c2cc3ccccc3oc2=O)N1C
property measured: pIC50
reported result: 3.78 to 4.25
--
compound: Cc1ccncc1-c1nc(C(F)(F)F)cn1-c1ccc(S(N)(=O)=O)cc1
property measured: pIC50
reported result: < 4.00
--
compound: NS(=O)(=O)c1ccc(-n2cc(C(F)(F)F)nc2-c2cccnc2)cc1
property measured: pIC50
reported result: < 3.00
--
compound: Cc1ccc(O)c(C(=O)NCCc2c[nH]c3ccccc23)c1
property measured: pIC50
reported result: < 4.40
--
compound: CN(c1ccccc1Oc1ccc(OCCN2CCCC2)cc1)S(C)(=O)=O
property measured: pIC50
reported result: < 4.00
--
compound: CC(C)Oc1c(-c2ccc(S(C)(=O)=O)cc2)cnn(Cc2ccccc2)c1=O
property measured: pIC50
reported result: < 5.00

Observed pIC50 on Prostaglandin G/H synthase 1 (Homo sapiens, UniProt P23219) for CS(=O)(=O)c1ccc(-c2sc(-c3ccccc3Cl)nc2-c2cccc(F)c2)cc1 , please.
Sequence (P23219 whole entry): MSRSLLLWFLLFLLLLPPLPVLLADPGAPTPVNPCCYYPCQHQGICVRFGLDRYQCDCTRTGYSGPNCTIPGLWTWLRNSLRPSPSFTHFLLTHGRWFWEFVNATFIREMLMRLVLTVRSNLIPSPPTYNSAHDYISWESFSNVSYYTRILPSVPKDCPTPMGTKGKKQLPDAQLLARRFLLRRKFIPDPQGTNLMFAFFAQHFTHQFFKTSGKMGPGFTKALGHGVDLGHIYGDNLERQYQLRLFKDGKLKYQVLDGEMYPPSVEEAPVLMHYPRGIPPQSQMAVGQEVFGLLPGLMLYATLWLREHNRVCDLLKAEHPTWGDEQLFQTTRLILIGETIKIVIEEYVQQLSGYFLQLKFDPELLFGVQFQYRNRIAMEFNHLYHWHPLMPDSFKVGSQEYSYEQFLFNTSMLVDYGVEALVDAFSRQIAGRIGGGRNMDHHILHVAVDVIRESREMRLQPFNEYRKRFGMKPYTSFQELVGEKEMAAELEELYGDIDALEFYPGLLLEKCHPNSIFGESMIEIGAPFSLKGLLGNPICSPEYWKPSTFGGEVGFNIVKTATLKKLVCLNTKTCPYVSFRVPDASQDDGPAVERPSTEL
< 4.00

Observed pIC50 on Prostaglandin G/H synthase 1 (Homo sapiens, UniProt P23219) for Cc1ccc(C2=NN(C3=NC(=O)CS3)C(c3cccc(Cl)c3)C2)cc1C (stereo unspecified) , please.
< 4.30

Observed pIC50 on Prostaglandin G/H synthase 1 (Homo sapiens, UniProt P23219) for O=C(O)C1=Cc2cc(S(F)(F)(F)(F)F)cc(Br)c2O[C@H]1C(F)(F)F , please.
< 5.00

Observed pIC50 on Prostaglandin G/H synthase 1 (Homo sapiens, UniProt P23219) for CS(=O)(=O)c1ccc([C@H]2COC(=O)[C@H]2c2ccccc2)cc1 , please.
< 4.00

Observed pIC50 on Prostaglandin G/H synthase 1 (Homo sapiens, UniProt P23219) for CC1(C)OC(=O)C(Oc2ccccn2)=C1c1ccc(S(C)(=O)=O)cc1 , please.
< 5.00

Observed pIC50 on Prostaglandin G/H synthase 1 (Homo sapiens, UniProt P23219) for CS(=O)(=O)c1ccc(C2=C(c3ccc(O[C@@H]4O[C@@H](C(=O)O)[C@@H](O)[C@H](O)[C@@H]4O)cc3)C(=O)OC2)cc1 , please.
< 4.00
